Values from patent US20240270821A1

Give cAMP Rel EC50 (in the presence of 1% HSA) for every item shown.
- Test System: human glucagon receptor (human) (UniProt P47871)
- Sequence (P47871 26-477): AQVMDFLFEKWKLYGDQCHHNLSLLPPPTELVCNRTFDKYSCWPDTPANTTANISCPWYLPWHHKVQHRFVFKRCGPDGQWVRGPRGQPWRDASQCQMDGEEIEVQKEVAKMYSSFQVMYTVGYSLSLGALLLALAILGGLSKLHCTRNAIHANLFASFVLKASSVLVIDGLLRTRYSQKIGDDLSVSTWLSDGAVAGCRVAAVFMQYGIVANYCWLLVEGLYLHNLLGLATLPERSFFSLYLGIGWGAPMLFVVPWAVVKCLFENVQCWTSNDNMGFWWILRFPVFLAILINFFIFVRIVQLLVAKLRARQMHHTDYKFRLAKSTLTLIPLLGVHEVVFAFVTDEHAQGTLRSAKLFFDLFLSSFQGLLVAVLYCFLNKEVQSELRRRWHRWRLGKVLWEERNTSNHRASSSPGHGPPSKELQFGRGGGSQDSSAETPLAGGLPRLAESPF
- Assay: cell-based or functional assay
Express your answer as a number followed by its unit.

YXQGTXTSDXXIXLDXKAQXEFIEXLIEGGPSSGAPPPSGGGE (non-natural residues, acylated Lys (AEEA-γGlu-C18 diacid), C-terminal amide; synthetic construct; SITE 2: note = 2-Aminoisobutyric Acid; SITE 6: note = alpha-methyl-L-phenylalanine; SITE 10: note = 3-(4-Pyridyl)-L-alanine; SITE 11: note = alpha-methyl-L-serine; SITE 13: note = alpha-methyl-leucine; SITE 16: note = L-ornithine; SITE 17: note = Lysine is chemically modified th) [Example 1168] ... 364 nM
YXQGTFTSDFSKXLDKKAQXAFIEWLIEGGPSSGAPPPSEG (synthetic construct; SITE 2: note = 2-Aminoisobutyric Acid; SITE 13: note = alpha-methyl-leucine; SITE 17: note = Lysine is chemically modified through conjugation of the epsilon-amino group of the Lysine side chain with (2-[2-(2-Amino-ethoxy)-ethoxy]-acetyl)-(gamma-Glu)-CO-(CH2) 18-CO2H; SITE 20: n) [Example 40] ... 2750 nM
YXQGTFTSDFSIXLDKKAQXAFIEYLLEGGPSSGEPPPSEG (non-natural residues; acylated Lys; C-terminal amide; synthetic construct; SITE 2: note = 2-Aminoisobutyric Acid; SITE 13: note = alpha-methyl-leucine; SITE 17: note = Lysine is chemically modified through conjugation of the epsilon-amino group of the Lysine side chain with (2-[2-(2-Amino-ethoxy)-ethoxy]-acetyl)-(gamma-Glu)-CO-(CH2) 18-CO2H; SITE 20: n) [Example 288] ... 3580 nM
YXQGTFTSDFSKXLDKKAQXAFIEWLLAGGPSSGEPPPSEG (synthetic construct; SITE 2: note = 2-Aminoisobutyric Acid; SITE 13: note = alpha-methyl-leucine; SITE 17: note = Lysine is chemically modified through conjugation of the epsilon-amino group of the Lysine side chain with (2-[2-(2-Amino-ethoxy)-ethoxy]-acetyl)-(gamma-Glu)-CO-(CH2) 18-CO2H; SITE 20: n) [Example 20] ... 587 nM
YXQGTFTSDFSXXLDKKAQXAFIEYLLEAGPSSGHPPPSGX (non-natural residues; acylated Lys C18 diacid; C-term amide; synthetic construct; SITE 2: note = 2-Aminoisobutyric Acid; SITE 12: note = L-ornithine; SITE 13: note = alpha-methyl-leucine; SITE 17: note = Lysine is chemically modified through conjugation of the epsilon-amino group of the Lysine side chain with (2-[2-(2-Amino-ethoxy)-ethoxy]-acetyl)2-(gamma-Glu)) [Example 256] ... 625 nM

Quick one: cAMP Rel EC50 (in the presence of 1% HSA) for YXQGTFTSDFSXXLDKKAQXAFIEWLLEXGSSSGAPPPSGT (Aib, Orn, αMeL, acylated K, C-terminal amide; synthetic construct; SITE 2: note = 2-Aminoisobutyric Acid; SITE 12: note = L-ornithine; SITE 13: note = alpha-methyl-leucine; SITE 17: note = Lysine is chemically modified through conjugation of the epsilon-amino group of the Lysine side chain with (2-[2-(2-Amino-ethoxy)-ethoxy]-acetyl)-(gamma-Glu)) [Example 264] ? 1000 nM
